- target_system: MMP-11 (stromelysin-3, mST3) (Mus musculus, UniProt Q02853)
- Sequence (Q02853 102-492): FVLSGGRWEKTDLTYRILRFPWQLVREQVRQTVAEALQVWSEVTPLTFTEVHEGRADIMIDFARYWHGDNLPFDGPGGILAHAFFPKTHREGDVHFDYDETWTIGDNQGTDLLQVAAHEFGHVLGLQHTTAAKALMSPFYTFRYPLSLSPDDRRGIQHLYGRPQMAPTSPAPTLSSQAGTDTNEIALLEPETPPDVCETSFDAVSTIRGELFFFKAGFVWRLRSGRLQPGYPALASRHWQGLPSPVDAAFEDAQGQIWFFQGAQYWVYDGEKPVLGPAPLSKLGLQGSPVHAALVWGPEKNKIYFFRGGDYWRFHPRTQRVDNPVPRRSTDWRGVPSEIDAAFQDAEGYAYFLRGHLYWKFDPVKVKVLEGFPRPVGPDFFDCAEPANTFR
- test_summary: Ki determination with fluorogenic synthetic substrates, recombinant MMP-11
- run_conditions: Tris/50 mM HCl buffer, pH 6.8, 10 mM CaCl2, 25° C.; read-out: affinity constant Ki, MMP-11 mST3
pKi: −log10 of the molar value.
readout_label: pKi

INSERT INTO assay_data (molecule, target_system, numeric_result) VALUES
  ('NC(=O)C(Cc1c[nH]c2ccccc12)NC(=O)C(COCc1ccccc1)CP(=O)(O)C(Cc1ccccc1)NC(=O)OCc1ccccc1 (stereo not drawn)', 'MMP-11 (stromelysin-3, mST3) (Mus musculus, UniProt Q02853)', 7.80),
  ('NC(=O)C(Cc1c[nH]c2ccccc12)NC(=O)C(CCCc1ccccc1)CP(=O)(O)C(Cc1ccccc1)NC(=O)OCc1ccccc1 (single isomer, unassigned) [Compound 15 R II]', 'MMP-11 (stromelysin-3, mST3) (Mus musculus, UniProt Q02853)', 8.05),
  ('CC(NC(=O)OCc1ccccc1)C(=O)NC(Cc1ccccc1)P(=O)(O)CC(CCCc1ccccc1)C(=O)NC(Cc1c[nH]c2ccccc12)C(N)=O (stereo not drawn)', 'MMP-11 (stromelysin-3, mST3) (Mus musculus, UniProt Q02853)', 8.10),
  ('NC(=O)C(Cc1c[nH]c2ccccc12)NC(=O)C(CCCc1ccccc1)CP(=O)(O)C(Cc1ccccc1)NC(=O)c1ccc2ccccc2n1 (stereo not drawn)', 'MMP-11 (stromelysin-3, mST3) (Mus musculus, UniProt Q02853)', 8.38),
  ('NC(=O)C(Cc1c[nH]c2ccccc12)NC(=O)C(CCCc1ccccc1)CP(=O)(O)C(Cc1ccccc1)NC(=O)c1cc2c(Cl)cc(Cl)cc2[nH]1 (stereo not drawn)', 'MMP-11 (stromelysin-3, mST3) (Mus musculus, UniProt Q02853)', 9.05),
  ('CC(=O)NC(Cc1ccccc1)P(=O)(O)CC(CCCc1ccccc1)C(=O)NC(Cc1c[nH]c2ccccc12)C(N)=O (stereo not drawn)', 'MMP-11 (stromelysin-3, mST3) (Mus musculus, UniProt Q02853)', 7.70);

----------
- target_system: MMP-9 (Gel-B) (Homo sapiens)
- Sequence (P14780 94-707): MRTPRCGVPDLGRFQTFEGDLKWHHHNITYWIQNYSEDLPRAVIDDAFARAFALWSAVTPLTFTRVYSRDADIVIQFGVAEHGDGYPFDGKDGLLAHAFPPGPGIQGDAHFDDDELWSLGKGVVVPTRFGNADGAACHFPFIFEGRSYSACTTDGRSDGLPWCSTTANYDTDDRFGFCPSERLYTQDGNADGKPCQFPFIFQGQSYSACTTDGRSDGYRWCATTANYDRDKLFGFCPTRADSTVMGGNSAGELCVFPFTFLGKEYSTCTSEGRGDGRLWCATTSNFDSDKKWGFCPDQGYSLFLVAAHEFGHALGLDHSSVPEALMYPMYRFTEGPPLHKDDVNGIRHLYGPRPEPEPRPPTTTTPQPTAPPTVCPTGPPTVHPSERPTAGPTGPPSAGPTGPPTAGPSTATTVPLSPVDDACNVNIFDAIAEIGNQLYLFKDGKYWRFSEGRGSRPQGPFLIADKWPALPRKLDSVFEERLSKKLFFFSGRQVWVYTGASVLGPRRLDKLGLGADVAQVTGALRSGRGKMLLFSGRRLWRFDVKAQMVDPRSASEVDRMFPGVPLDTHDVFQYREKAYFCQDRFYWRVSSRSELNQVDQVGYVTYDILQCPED
- test_summary: Ki determination with fluorogenic synthetic substrates, recombinant MMP-9
- run_conditions: Tris/50 mM HCl buffer, pH 6.8, 10 mM CaCl2, 25° C.; read-out: affinity constant Ki, MMP-9 Gel-B
Note to self: use met only for Ki readings below 60 nM; a reading exactly at 60 nM still gets not met.

INSERT INTO assay_data (molecule, label_class) VALUES
  ('NC(=O)C(Cc1c[nH]c2ccccc12)NC(=O)C(CCc1ccccc1)CP(=O)(O)C(Cc1ccccc1)NC(=O)OCc1ccccc1 (stereo not drawn)', 'not met'),
  ('CC(C)CC(CP(=O)(O)C(Cc1ccccc1)NC(=O)OCc1ccccc1)C(=O)NC(Cc1c[nH]c2ccccc12)C(N)=O (stereo not drawn)', 'not met'),
  ('NC(=O)C(Cc1c[nH]c2ccccc12)NC(=O)C(CCCc1ccccc1)CP(=O)(O)C(Cc1ccccc1)NC(=O)OCc1ccccc1 (single isomer, unassigned) [Compound 15 S II]', 'not met'),
  ('NC(=O)C(Cc1c[nH]c2ccccc12)NC(=O)C(CCCc1ccccc1)CP(=O)(O)C(Cc1ccccc1)NC(=O)c1ccc2ccccc2n1 (stereo not drawn)', 'met'),
  ('NC(=O)C(Cc1c[nH]c2ccccc12)NC(=O)C(COCc1ccccc1)CP(=O)(O)C(Cc1ccccc1)NC(=O)OCc1ccccc1 (stereo not drawn)', 'met');
